# System: BaF3 (EGFR L858R/T790M/C797S)
# ASSAY_NOTES: Cell proliferation IC50 assay (Cell Titer GLO), BaF3 LTC cells
# Assay type: cell-based
# MEASUREMENT_CONTEXT: Mus musculus, Ba/F3 EGFR, Table 5, 72 h
REPORTED_METRIC: pIC50
API: returns pIC50 as number; meaning -log10 of concentration in mol/L.

Query: Any idea what its pIC50 is? The molecule is CCc1cc(Nc2ncc(Cl)c(Nc3ccccc3P(C)(C)=O)n2)c(OC)cc1N1CCC(N2CC3(CCC(Oc4cccc5c4CN(C4CCC(=O)NC4=O)C5=O)CC3)C2)CC1 (stereo not drawn) [Example E29]
Result: 7.68

Query: Any idea what its pIC50 is? The molecule is CCc1cc(Nc2ncc(Cl)c(Nc3ccccc3P(C)(C)=O)n2)c(OC)cc1N1CCC(N2CCN(CCCCCc3cc4c(cc3F)C(=O)N(C3CCC(=O)NC3=O)C4)CC2)CC1 (stereo not drawn) [Example E19]
Result: 7.21

Query: Any idea what its pIC50 is? The molecule is CN(CCCC#Cc1cccc2c1CN(C1CCC(=O)NC1=O)C2=O)C1CC2(CCN(c3ccc(Nc4ncc(Cl)c(Nc5ccccc5P(C)(C)=O)n4)cc3Cl)CC2)C1 (stereo not drawn) [Example E14]
Result: 7.26

Query: Any idea what its pIC50 is? The molecule is CP(C)(=O)c1ccccc1Nc1nc(Nc2ccc(N3CCC4(CCN(CCCC#Cc5cccc6c5CN(C5CCC(=O)NC5=O)C6=O)CC4)CC3)c(Cl)c2)ncc1Cl (stereo not drawn) [Example E18]
Result: 6.57

Query: Any idea what its pIC50 is? The molecule is COc1cc(N2CCC3(CCN(CCCC#Cc4cccc5c4CN(C4CCC(=O)NC4=O)C5=O)CC3)CC2)c(C)cc1Nc1ncc(Br)c(Nc2ccc3ccccc3c2P(C)(C)=O)n1 (stereo not drawn) [Example E12]
Result: 6.95

Query: Any idea what its pIC50 is? The molecule is CCc1cc(Nc2ncc(Cl)c(Nc3ccccc3P(C)(C)=O)n2)c(OC)cc1N1CCC2(CCN(CCCCC#Cc3cccc4c3CN(C3CCC(=O)NC3=O)C4=O)CC2)CC1 (stereo not drawn) [Example E23]
Result: 6.98

Query: Any idea what its pIC50 is? The molecule is COc1cc(N2CCC3(CCN(CCCC#Cc4cccc5c4CN(C4CCC(=O)NC4=O)C5=O)CC3)CC2)c(Cl)cc1Nc1ncc(Cl)c(Nc2ccccc2P(C)(C)=O)n1 (stereo not drawn) [Example E11]
Result: 7.21

Query: Any idea what its pIC50 is? The molecule is CCc1cc(Nc2ncc(Br)c(Nc3ccc4c(c3P(C)(C)=O)OCCO4)n2)c(OC)cc1N1CCC2(CCN(CCCC#Cc3cccc4c3CN(C3CCC(=O)NC3=O)C4=O)CC2)CC1 (stereo not drawn) [Example E28]
Result: 7.24

Query: Any idea what its pIC50 is? The molecule is COc1cc(N2CCC(N3CCN(CCC#Cc4cccc5c4CN(C4CCC(=O)NC4=O)C5=O)CC3)CC2)c(C2CC2)cc1Nc1ncc(Cl)c(Nc2ccccc2P(C)(C)=O)n1 (stereo not drawn) [Example E13]
Result: 7.18

Query: Any idea what its pIC50 is? The molecule is CCc1cc(Nc2ncc(Cl)c(Nc3ccccc3P(C)(C)=O)n2)c(OC)cc1N1CCC(N2CCC3(CCC(Oc4cccc5c4CN(C4CCC(=O)NC4=O)C5=O)CC3)C2)CC1 (stereo not drawn) [Example E21]
Result: 7.77
